assayed system: Anti-CD28 Fab (SEQ ID NOs: 202, 203)
Sequence (VH, as listed by the source, chain 1 of 2): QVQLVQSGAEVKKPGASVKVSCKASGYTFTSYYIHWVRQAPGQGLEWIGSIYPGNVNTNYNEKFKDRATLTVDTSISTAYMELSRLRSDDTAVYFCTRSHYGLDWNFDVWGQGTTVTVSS
Sequence (VL, as listed by the source, chain 2 of 2): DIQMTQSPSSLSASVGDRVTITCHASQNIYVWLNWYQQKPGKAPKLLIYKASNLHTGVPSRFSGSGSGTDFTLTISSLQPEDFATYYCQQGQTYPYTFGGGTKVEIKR
assay notes: phage binding ELISA on captured Fab; competitor CD28 antigen;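 also: wells pretreated with CD28 antigen in blocking buffer or buffer only, then clonal phage supernatants added briefly without washing, bound phage detected via horseradish-conjugated anti-M13 antibody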
readout type: Anti-CD28 Fab signal in the presence of CD28

binder: YCEGHLPEYMWKCL [Phage-62]
measured: 0.08

binder: YCEGHAAEYMAKCL [Phage-63]
measured: 0.08

binder: YCDGHEPQYMLKCL [Phage-88]
measured: 0.12

binder: YCEGHSSEYIQKCL [Phage-37]
measured: 0.1

binder: YCEGHAAEYMTKCL [Phage-143]
measured: 0.08

binder: YCDGHTLEYMWKCL [Phage-95]
measured: 0.13

binder: YCEGHLPEYLGKCL [Phage-33]
measured: 0.08

binder: YCDGHLPIYMSQCL [Phage-73]
measured: 0.12

binder: YCDGHRGEYLQKCL [Phage-141]
measured: 0.09

binder: YCEGHSPEYILKCL [Phage-25]
measured: 0.06

binder: YCEGHLPLYMWKCL [Phage-96]
measured: 0.07

binder: YCDGHAPEYMEKCM [Phage-148]
measured: 0.07

binder: YCDGHLPEYMAKCL [Phage-69]
measured: 0.13

binder: YCEGHTVEYMAKCL [Phage-149]
measured: 0.08

binder: YCDGHSPEYILKCL [Phage-93]
measured: 0.09

binder: YCDGHAPEYMMKCL [Phage-61]
measured: 0.09

binder: YCEGHSPEYMSKCL [Phage-89]
measured: 0.07

binder: YCEGHSQENIWKCL [Phage-32]
measured: 0.07

binder: YCDGHSWEYIGKCL [Phage-70]
measured: 0.07

binder: YCDGHLPIYMAKCL [Phage-100]
measured: 0.14

binder: YCAGHLPEYMPHCI [Phage-91]
measured: 0.09

binder: YCEGHLPEYLEKCV [Phage-41]
measured: 0.06

binder: YCDGHSPIYMWKCL [Phage-45]
measured: 0.09

binder: YCAGHLPEYMDKCL [Phage-53]
measured: 0.12

binder: YCEGHAPEYIRKCL [Phage-30]
measured: 0.08

binder: YCEGHSPQYMWKCL [Phage-142]
measured: 0.12

binder: YCEGHLPQYMWKCL [Phage-51]
measured: 0.17

binder: YCEGHLPEYMFKCL [Phage-58]
measured: 0.12

binder: YCEGHEGIYFWKCL [Phage-27]
measured: 0.06

binder: YCEGHLPEYRNKCL [Phage-40]
measured: 0.17

binder: YCDGHLPQYMEKCL [Phage-47]
measured: 0.11
